- experimental system: Phosphodiesterase 3 (Homo sapiens, UniProt Q14432+Q13370)
- run description: Inhibitory concentration against phosphodiesterase 3 from human platelet
outcome measure: IC50 (µM)
Give the value in µM but do not write µM after it.

COc1cc(-c2ccc(=O)[nH]n2)ccc1OC(F)F    0.11

Here is another molecule to look at.
IC50 reading for CCOC(=O)c1sc(Nc2nc(NCc3ccc(OC)c(OC)c3)c3c(ncn3CC)n2)nc1C : 0.58

----------
- run description: Inhibitory concentration ratio of PDE3 to that of PDE7
outcome measure: Ratio

CCOC(=O)c1sc(Nc2nc(N3CCc4cc(OC)c(OC)cc4C3)c3c(ncn3CC)n2)nc1C    17
CCn1cnc2nc(Nc3nc(C)c(C(=O)Nc4ccccc4)s3)nc(NCc3ccc(OC)c(OC)c3)c21    12
CCOC(=O)c1sc(Nc2nc(OCc3ccc(S(C)(=O)=O)cc3)c3ncn(CC)c3n2)nc1C    21
CCOC(=O)c1sc(Nc2nc(NCc3ccc4c(c3)OCO4)c3c(ncn3CC)n2)nc1C    11
CCOC(=O)c1sc(Nc2nc(NS(=O)(=O)c3ccc(S(C)(=O)=O)cc3)c3ncn(CC)c3n2)nc1C    0.11
CCOC(=O)c1sc(Nc2nc(NCc3ccc(S(C)(=O)=O)cc3)c3c(ncn3CC)n2)nc1C    130

[A] CCOC(=O)c1sc(Nc2nc(NCc3ccc(OCc4ccccc4)c(OC)c3)c3c(ncn3CC)n2)nc1C
[B] CCOC(=O)c1sc(Nc2nc(NCc3cc(OC)c(OC)c(OC)c3)c3c(ncn3CC)n2)nc1C
Smaller Ratio value? Options are A and B Write down the label attached to your selection.
A

----------
- run description: Inhibitory concentration ratio of PDE2 to that of PDE7
outcome measure: Ratio

In the examples that follow, each entry is paired with its recorded Ratio.
CCn1cnc2nc(Nc3nc(C)c(C(=O)Nc4ccccc4)s3)nc(NCc3ccc(OC)c(OC)c3)c21    11
CCOC(=O)c1sc(Nc2nc(NCc3ccc(OCc4ccccc4)c(OC)c3)c3c(ncn3CC)n2)nc1C    2.3
CCOC(=O)c1sc(Nc2nc(NCc3ccc(S(N)(=O)=O)cc3)c3ncn(CC)c3n2)nc1C    45
CCOC(=O)c1sc(Nc2nc(NCc3ccc(S(C)(=O)=O)cc3)c3c(ncn3CC)n2)nc1C    25

[1] CCOC(=O)c1sc(Nc2nc(NCc3cc(OC)c(OC)c(OC)c3)c3c(ncn3CC)n2)nc1C
[2] CCOC(=O)c1sc(Nc2nc(N3CCc4cc(OC)c(OC)cc4C3)c3c(ncn3CC)n2)nc1C
// which entry has the larger Ratio value, 1 or 2 ? When you have decided, please share the label of that item.
1
(1: 14, 2: 3.6)

----------
- experimental system: cGMP-dependent 3',5'-cyclic phosphodiesterase (Rattus norvegicus, UniProt Q01062)
- Sequence (Q01062 whole entry): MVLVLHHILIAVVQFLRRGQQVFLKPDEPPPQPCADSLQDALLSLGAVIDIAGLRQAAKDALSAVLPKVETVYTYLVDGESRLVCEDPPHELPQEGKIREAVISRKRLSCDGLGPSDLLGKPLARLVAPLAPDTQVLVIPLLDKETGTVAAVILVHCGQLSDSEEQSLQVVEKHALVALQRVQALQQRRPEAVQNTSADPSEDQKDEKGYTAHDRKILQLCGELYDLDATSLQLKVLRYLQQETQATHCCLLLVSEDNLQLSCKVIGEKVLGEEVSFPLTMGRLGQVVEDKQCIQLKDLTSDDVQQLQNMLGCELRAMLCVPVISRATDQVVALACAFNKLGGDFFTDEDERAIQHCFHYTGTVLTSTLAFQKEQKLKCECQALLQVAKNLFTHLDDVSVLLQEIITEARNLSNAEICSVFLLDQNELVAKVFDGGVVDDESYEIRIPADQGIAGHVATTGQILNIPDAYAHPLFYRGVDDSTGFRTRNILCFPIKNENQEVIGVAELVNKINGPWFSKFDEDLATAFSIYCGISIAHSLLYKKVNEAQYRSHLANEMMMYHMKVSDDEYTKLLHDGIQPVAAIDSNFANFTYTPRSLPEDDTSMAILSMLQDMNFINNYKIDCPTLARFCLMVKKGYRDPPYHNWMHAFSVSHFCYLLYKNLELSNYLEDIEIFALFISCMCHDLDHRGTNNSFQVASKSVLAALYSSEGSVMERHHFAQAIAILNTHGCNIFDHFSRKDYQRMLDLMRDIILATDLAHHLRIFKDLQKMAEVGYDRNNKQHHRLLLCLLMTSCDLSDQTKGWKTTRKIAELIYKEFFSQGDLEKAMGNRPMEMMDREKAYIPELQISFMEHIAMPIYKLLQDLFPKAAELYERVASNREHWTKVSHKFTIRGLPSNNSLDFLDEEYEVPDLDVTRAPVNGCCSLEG
- run description: Inhibitory concentration against phosphodiesterase 2 from rat kidney
Measured IC50, listed per entry for reference.

COc1cc(-c2ccc(=O)[nH]n2)ccc1OC(F)F    > 10 µM
CCOC(=O)c1sc(Nc2nc(NCc3ccc(OC)c(OC)c3)c3c(ncn3CC)n2)nc1C    1.7 µM
CCCc1nn(C)c2c(=O)[nH]c(-c3cc(S(=O)(=O)N4CCN(C)CC4)ccc3OCC)nc12    > 10 µM

Now consider the entry below.
In plain terms, CN(C(=O)CCCOc1ccc2[nH]c(=O)ccc2c1)C1CCCCC1 [CILOSTAMIDE] has a documented IC50 of > 10 µM
